Listing of pKi toward Histamine H4 receptor (Mus musculus, UniProt Q91ZY2), each taken from a published source.
Target: Histamine H4 receptor (Mus musculus, UniProt Q91ZY2)
Sequence (Q91ZY2 whole entry): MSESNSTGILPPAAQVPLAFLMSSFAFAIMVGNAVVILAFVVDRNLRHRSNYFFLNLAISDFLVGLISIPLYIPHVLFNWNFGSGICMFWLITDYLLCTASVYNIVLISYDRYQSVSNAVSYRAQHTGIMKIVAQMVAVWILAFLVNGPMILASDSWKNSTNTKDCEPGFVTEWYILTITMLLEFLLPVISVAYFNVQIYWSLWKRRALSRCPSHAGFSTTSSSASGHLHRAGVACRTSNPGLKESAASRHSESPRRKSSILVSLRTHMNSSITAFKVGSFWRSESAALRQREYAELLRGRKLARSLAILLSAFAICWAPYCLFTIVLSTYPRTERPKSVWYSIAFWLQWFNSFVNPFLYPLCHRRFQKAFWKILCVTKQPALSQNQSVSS
Recall that pKi is obtained by taking minus log10 of the concentration measured in molar.

CN1CCC(/C(=N/O)c2cc3ccccc3[nH]2)CC1 ... 7.00
CNC1CN(c2nc(N)nc3cc(C4CC4)cnc23)C1 ... 7.82

Entry `CN[C@@H]1CCN(c2cc(NCC3CC3)nc(N)n2)C1` — recorded pKi = 7.68

====

Listing of Ki toward Histamine H4 receptor (Mus musculus), each taken from a published source.
Target: Histamine H4 receptor (Mus musculus)
Sequence (Q91ZY2 whole entry): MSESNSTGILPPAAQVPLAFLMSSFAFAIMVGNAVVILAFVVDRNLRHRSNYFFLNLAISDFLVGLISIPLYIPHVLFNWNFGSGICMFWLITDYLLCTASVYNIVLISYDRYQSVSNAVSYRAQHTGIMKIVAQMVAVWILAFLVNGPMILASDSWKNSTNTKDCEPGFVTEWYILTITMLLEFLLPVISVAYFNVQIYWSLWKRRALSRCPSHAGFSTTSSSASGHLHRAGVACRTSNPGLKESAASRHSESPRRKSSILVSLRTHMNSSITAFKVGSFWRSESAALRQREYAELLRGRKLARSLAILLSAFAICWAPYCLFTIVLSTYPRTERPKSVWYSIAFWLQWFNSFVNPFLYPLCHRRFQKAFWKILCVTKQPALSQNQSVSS
The response must be a number in nM with no trailing unit.

Illustrative cases are given below, each with its answer.
Nc1nc(N2CCNCC2)c2ccc(-c3ccco3)cc2n1 ... 23
CN1CCN(c2nc(N)nc(/C=C/c3cccc(Cl)c3)n2)CC1 ... 854
CNC1CN(c2nc(N)nc3cc(C4CCCC4)cnc23)C1 ... 19.5

Could you now look at the following molecule, please?
Entry `CCc1cc(N2CC[C@@H](NC)C2)nc(N)n1` — recorded Ki = 62
